Target: peroxisome proliferator-activated receptor-δ (PPARδ) (Homo sapiens, UniProt Q03181)
Sequence (Q03181 whole entry): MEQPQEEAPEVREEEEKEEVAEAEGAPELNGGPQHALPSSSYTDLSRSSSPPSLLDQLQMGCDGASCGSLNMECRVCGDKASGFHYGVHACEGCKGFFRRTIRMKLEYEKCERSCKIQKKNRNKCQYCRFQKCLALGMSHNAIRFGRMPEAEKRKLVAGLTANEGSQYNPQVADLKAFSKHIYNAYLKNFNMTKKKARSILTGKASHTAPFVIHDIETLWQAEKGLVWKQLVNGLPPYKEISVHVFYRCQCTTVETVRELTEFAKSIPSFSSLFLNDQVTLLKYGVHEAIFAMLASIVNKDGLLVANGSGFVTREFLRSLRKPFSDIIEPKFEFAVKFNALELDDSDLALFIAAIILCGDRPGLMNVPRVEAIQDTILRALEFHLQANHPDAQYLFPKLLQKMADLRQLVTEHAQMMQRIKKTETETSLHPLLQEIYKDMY
Test: PPARδ agonist potency
Description: PPARδ activation stimulates fatty acid oxidation and utilization, improves plasma lipid and lipoprotein metabolism, glucose utilization, and mitochondrial respiration, and preserves stem cell homeostasis.
measured_property: EC50 (nM)
One number for each entry, in nM.

INPUT: Quick one: EC50 for CCO[C@H](COc1ccc(C(F)(F)F)cc1)CSc1ccc(OCC(=O)O)c(C)c1 ?
OUTPUT: 2
